REPORTED_ENDPOINT: melting point (°C)

>>> print(df.to_string())
                                   compound  unit_tag  endpoint_result
0  COc1cc(C(=Cc2cc(C(F)(F)F)ccc2Cl)C(=O)O)cc(OC)c1OC [compound k]        °C              258
1  COc1cc(C(=Cc2ccc(Cl)cc2Cl)C(=O)O)cc(OC)c1OC [compound c]        °C              228
2  COc1ccc(C(=Cc2ccc(OC)c(OC)c2Cl)C(=O)O)cc1 [compound t]        °C              202
